system: Haemophilus influenzae RD; test: MIC, standard broth micro-dilution assay, HFRD; format: cell-based
Reported Metric: minimal inhibitory concentration (MIC), HFRD

[in] Field: minimal inhibitory concentration (MIC), HFRD (Haemophilus influenzae RD). Entry: CC(C)CC(N)C(=O)NC1C(=O)NC(CC(N)=O)C(=O)NC2C(=O)NC3C(=O)NC(C(=O)NC(C(=O)O)c4cc(O)cc(O)c4-c4cc3ccc4O)C(OC3CC(C)(N)C(O)C(C)O3)c3ccc(c(Cl)c3)Oc3cc2cc(c3OC2OC(CO)C(O)C(O)C2OC2CC(C)(NCc3ccc(-c4ccccc4)cc3)C(O)C(C)O2)Oc2ccc(cc2Cl)C1O (stereo not drawn) [Example 27]
[out] 64

[in] Field: minimal inhibitory concentration (MIC), HFRD (Haemophilus influenzae RD). Entry: CC1OC(OC2c3ccc(c(Cl)c3)Oc3cc4cc(c3OC3OC(CO)C(O)C(O)C3OC3CC(C)(NCc5ccc(-c6ccccc6)cc5)C(O)C(C)O3)Oc3ccc(cc3Cl)C(O)C(NC(=O)C3CCCN3)C(=O)NC(CC(N)=O)C(=O)NC4C(=O)NC3C(=O)NC2C(=O)NC(C(=O)O)c2cc(O)cc(O)c2-c2cc3ccc2O)CC(C)(N)C1O (stereo not drawn) [Example 32]
[out] >64

[in] Field: minimal inhibitory concentration (MIC), HFRD (Haemophilus influenzae RD). Entry: CC1OC(OC2c3ccc(c(Cl)c3)Oc3cc4cc(c3OC3OC(CO)C(O)C(O)C3OC3CC(C)(NCc5ccc(-c6ccccc6)cc5)C(O)C(C)O3)Oc3ccc(cc3Cl)C(O)C(NC(=O)CCCCCCCc3ccccc3)C(=O)NC(CC(N)=O)C(=O)NC4C(=O)NC3C(=O)NC2C(=O)NC(C(=O)O)c2cc(O)cc(O)c2-c2cc3ccc2O)CC(C)(N)C1O (stereo not drawn) [Example 3]
[out] >64

[in] Field: minimal inhibitory concentration (MIC), HFRD (Haemophilus influenzae RD). Entry: CC(C)CC(N)C(=O)NC1C(=O)NC(CC(N)=O)C(=O)NC2C(=O)NC3C(=O)NC(C(=O)NC(C(=O)O)c4cc(O)cc(O)c4-c4cc3ccc4O)C(OC3CC(C)(N)C(O)C(C)O3)c3ccc(c(Cl)c3)Oc3cc2cc(c3OC2OC(CO)C(O)C(O)C2O)Oc2ccc(cc2Cl)C1O (stereo not drawn) [Example 37]
[out] 64

[in] Field: minimal inhibitory concentration (MIC), HFRD (Haemophilus influenzae RD). Entry: CC1OC(OC2C(Oc3c4cc5cc3Oc3ccc(cc3Cl)[C@@H](O)[C@@H](NC(=O)[C@@H](Cc3ccc(Cl)cc3)NC(=O)OC(C)(C)C)C(=O)N[C@@H](CC(N)=O)C(=O)N[C@H]5C(=O)N[C@H]3C(=O)NC(C(=O)N[C@H](C(=O)O)c5cc(O)cc(O)c5-c5cc3ccc5O)[C@H](OC3CC(C)(N)C(O)C(C)O3)c3ccc(c(Cl)c3)O4)OC(CO)C(O)C2O)CC(C)(N)C1O (stereo partly drawn) [Example 20]
[out] 8

[in] Field: minimal inhibitory concentration (MIC), HFRD (Haemophilus influenzae RD). Entry: CC1OC(OC2c3ccc(c(Cl)c3)Oc3cc4cc(c3OC3OC(CO)C(O)C(O)C3OC3CC(C)(NCc5ccc(-c6ccccc6)cc5)C(O)C(C)O3)Oc3ccc(cc3Cl)C(O)C(NC(=O)C(N)Cc3ccc(Cl)cc3)C(=O)NC(CC(N)=O)C(=O)NC4C(=O)NC3C(=O)NC2C(=O)NC(C(=O)O)c2cc(O)cc(O)c2-c2cc3ccc2O)CC(C)(N)C1O (stereo not drawn) [Example 22]
[out] >64

[in] Field: minimal inhibitory concentration (MIC), HFRD (Haemophilus influenzae RD). Entry: CC(C)C[C@@H](N)C(=O)N[C@H]1C(=O)N[C@@H](CC(N)=O)C(=O)N[C@H]2C(=O)N[C@H]3C(=O)NC(C(=O)N[C@H](C(=O)O)c4cc(O)cc(O)c4-c4cc3ccc4O)[C@H](OC3CC(C)(N)C(O)C(C)O3)c3ccc(c(Cl)c3)Oc3cc2cc(c3OC2OC(CO)C(O)C(O)C2OC2CC(C)(N)C(O)C(C)O2)Oc2ccc(cc2Cl)[C@H]1O (stereo partly drawn) [Example 17]
[out] 32

[in] Field: minimal inhibitory concentration (MIC), HFRD (Haemophilus influenzae RD). Entry: CC(C)CC(NC(=O)OC(C)(C)C)C(=O)NC1C(=O)NC(CC(N)=O)C(=O)NC2C(=O)NC3C(=O)NC(C(=O)NC(C(=O)O)c4cc(O)cc(O)c4-c4cc3ccc4O)C(OC3CC(C)(N)C(O)C(C)O3)c3ccc(c(Cl)c3)Oc3cc2cc(c3OC2OC(CO)C(O)C(O)C2O)Oc2ccc(cc2Cl)C1O (stereo not drawn) [Example 36]
[out] >64

[in] Field: minimal inhibitory concentration (MIC), HFRD (Haemophilus influenzae RD). Entry: CC1OC(OC2c3ccc(c(Cl)c3)Oc3cc4cc(c3OC3OC(CO)C(O)C(O)C3OC3CC(C)(NCc5ccc(-c6ccccc6)cc5)C(O)C(C)O3)Oc3ccc(cc3Cl)C(O)C(NC(=O)C3CCCN3)C(=O)NC(CC(N)=O)C(=O)NC4C(=O)NC3C(=O)NC2C(=O)NC(C(=O)O)c2cc(O)cc(O)c2-c2cc3ccc2O)CC(C)(N)C1O (stereo not drawn) [Example 12]
[out] 32

[in] Field: minimal inhibitory concentration (MIC), HFRD (Haemophilus influenzae RD). Entry: CC1OC(OC2c3ccc(c(Cl)c3)Oc3cc4cc(c3OC3OC(CO)C(O)C(O)C3OC3CC(C)(NCc5ccc(-c6ccc(Cl)cc6)cc5)C(O)C(C)O3)Oc3ccc(cc3Cl)C(O)C(NC(=O)CCCCCCCc3ccccc3)C(=O)NC(CC(N)=O)C(=O)NC4C(=O)NC3C(=O)NC2C(=O)NC(C(=O)O)c2cc(O)cc(O)c2-c2cc3ccc2O)CC(C)(N)C1O (stereo not drawn) [Example 8]
[out] >64

[in] Field: minimal inhibitory concentration (MIC), HFRD (Haemophilus influenzae RD). Entry: CC(C)CC(NC(=O)OC(C)(C)C)C(=O)NC1C(=O)NC(CC(N)=O)C(=O)NC2C(=O)NC3C(=O)NC(C(=O)NC(C(=O)O)c4cc(O)cc(O)c4-c4cc3ccc4O)C(OC3CC(C)(N)C(O)C(C)O3)c3ccc(c(Cl)c3)Oc3cc2cc(c3OC2OC(CO)C(O)C(O)C2OC2CC(C)(NCc3ccc(-c4ccccc4)cc3)C(O)C(C)O2)Oc2ccc(cc2Cl)C1O (stereo not drawn) [Example 18]
[out] 16

[in] Field: minimal inhibitory concentration (MIC), HFRD (Haemophilus influenzae RD). Entry: CC1OC(OC2c3ccc(c(Cl)c3)Oc3cc4cc(c3OC3OC(CO)C(O)C(O)C3OC3CC(C)(NCc5ccc(-c6ccccc6)cc5)C(O)C(C)O3)Oc3ccc(cc3Cl)C(O)C(NC(=O)C(Cc3c[nH]c5ccccc35)NC(=O)OC(C)(C)C)C(=O)NC(CC(N)=O)C(=O)NC4C(=O)NC3C(=O)NC2C(=O)NC(C(=O)O)c2cc(O)cc(O)c2-c2cc3ccc2O)CC(C)(N)C1O (stereo not drawn) [Example 25]
[out] >64
